B1: LINE1-mini (parent)
chain: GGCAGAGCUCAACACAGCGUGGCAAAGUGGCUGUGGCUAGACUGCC

Variants of: B1
Experiment: self-cleavage, relative activity (ratio to wild type); higher = more cleavage; in vitro, sequencing; the parent is a self-cleaving ribozyme
Tick Fulfilled if self-cleavage is 0.1 or greater. Tick Not fulfilled if self-cleavage is less than 0.1.

## Task Would you say G22U C23A shows self-cleavage at minimum 0.1?
## Result Fulfilled

## Task Would you say U32C G35A shows self-cleavage at minimum 0.1?
## Result Not fulfilled

## Task Would you say G1U G17C shows self-cleavage at minimum 0.1?
## Result Not fulfilled

## Task Would you say G22A G44A shows self-cleavage at minimum 0.1?
## Result Fulfilled

## Task Would you say C23A C37A shows self-cleavage at minimum 0.1?
## Result Not fulfilled

## Task Would you say G40A C46U shows self-cleavage at minimum 0.1?
## Result Fulfilled

## Task Would you say G7C G30A shows self-cleavage at minimum 0.1?
## Result Fulfilled

## Task Would you say G19C G22U shows self-cleavage at minimum 0.1?
## Result Fulfilled

## Task Would you say G27U C45G shows self-cleavage at minimum 0.1?
## Result Fulfilled

## Task Would you say C18G C46G shows self-cleavage at minimum 0.1?
## Result Fulfilled

## Task Would you say A11U C37U shows self-cleavage at minimum 0.1?
## Result Not fulfilled

## Task Would you say C31G G33U shows self-cleavage at minimum 0.1?
## Result Not fulfilled

## Task Would you say A14G A25C shows self-cleavage at minimum 0.1?
## Result Fulfilled

## Task Would you say A39G C42U shows self-cleavage at minimum 0.1?
## Result Fulfilled

## Task Would you say C18G U34G shows self-cleavage at minimum 0.1?
## Result Not fulfilled

## Task Would you say C15U G19A shows self-cleavage at minimum 0.1?
## Result Fulfilled

## Task Would you say G29U C42A shows self-cleavage at minimum 0.1?
## Result Fulfilled

## Task Would you say A12C C46G shows self-cleavage at minimum 0.1?
## Result Not fulfilled

## Task Would you say G7C C8U shows self-cleavage at minimum 0.1?
## Result Fulfilled

## Task Would you say A6U C18G shows self-cleavage at minimum 0.1?
## Result Fulfilled

## Task Would you say C8G C42G shows self-cleavage at minimum 0.1?
## Result Not fulfilled

## Task Would you say A11C C45U shows self-cleavage at minimum 0.1?
## Result Fulfilled

Values compiled from the RNAGym collection of RNA variant scans (doi:10.7554/elife.90254).
